system: THRa homodimer (NR concentration 90 nM); assay: PBM binding z-score (relative to random genomic background probes); higher = stronger binding; sequences stand for … in GC…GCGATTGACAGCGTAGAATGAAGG
Overview of recorded PBM binding z-score for various sequences
Answer as a number with no unit attached.

CCTATTGGGCCACGAAAGGTCATTGATTCAGTGA ... 0.834
ACAGTCAGGTGAGTGAAGGTAACTCAGCTGGACG ... -0.205
CGTCCAAGCTCAGAGAGGTCAGTGAATGCCGAGT ... 0.794
AGAATGTGGTTAAGATCAGGGAAACAGAATACAT ... -0.00414
ATCTCTAGGTAAAGATAGTTCAGTGGATGCAAAT ... 0.0913

I would be grateful if you could share the reported PBM binding z-score for `ATCGAAAGGTCGAGGTGAGGATAGAGAAAGGGAA` . 1.64

Entry `TAGCCTAGGTCAGTGGGCCAGTATAGTACGCATC` please -0.197

Entry `ACTATTAGTTGAGACGAGGGTAACCGATAGGTTG` please -0.208

Entry `ATATGTAGGTTATCGGGTCATGCAGTTTGCGCAT` please 3.02

Entry `GCTAGTAGGCCATTTGGGTCACTCAATGACGGGC` please 0.382

Entry `TCGAGTAGGTTACCAATGGGGCATGCAGCTTTCT` please -0.807

Entry `CCGAGTAGGTTCTGGGGCATTCAGGCAACGGTGA` please 0.0185

Data origin, for the record: the supplement of paper PMC6555819
